Origin of the recorded values: the nanobody polyreactivity screen of Harvey et al. (2022)

# assay-protocol: yeast display, Sf9 membrane polyspecificity reagent, FACS + sequencing; frameworks hold sequencing errors
recorded-endpoint: polyreactivity (PSR sort gate)

chain-sequence	recorded-value
QVQLVESGGGLVQAGGSLRLSCAASGFTFPNNAMGWYRQAPGKERELVAAITWSGGSTYADSVKGRFTISRDNAKNTVYLQMNSLKPEDTAVYYCNTRGTYLSKTLPSAYDYWGQGTQVTVSS	low polyreactivity
QVQLEESGGGLVQAGGSLRLSCAAYGSTFSYAMGWYRQAPGKERELVAAITIGGRTSYADSVKGRFTISRDNAKNTVYLQMSSLKPEDTAVYYCAADDLPGMDYWGQGTQVTVSS	low polyreactivity

###

# assay-protocol: yeast display, Sf9 membrane polyspecificity reagent, FACS + sequencing; frameworks hold sequencing errors

chain-sequence	polyreactivity (PSR sort gate)
QVQLVESGGGLVQAGGSLRLSCAASGIIFYRYAMGWYRQAPAKERELVAAISRSGGSTYYADSVKGRFTISRDNAKNTVYLQMNSLKPEDTAVYYCAARVRTNYYGSYYYWGQGTQVTVSS	high polyreactivity
QVQLVESGGGLVQAGGSLRLSCAASGFIFYGNAMAWSRQAPGKEREFVAAINGRGVSTYYADSVKGRFTISRDNAKNSDYLQMNSLKPEDTAVYYCNKVYWGRGPLEYWGQGTQVTVSS	high polyreactivity
QVQHVESGGGLVQAGGSLRLSCAASGRIFYGYAMGWYRQAPGKERELVAAISSSGGSTYYADSVKGRFTISRDIAKNTVYLQMNSLKPEDTAVYYCNAQRYRPGYWYDYWGQGTQVTVSS	high polyreactivity

###

# assay-protocol: yeast display, Sf9 membrane polyspecificity reagent, FACS + sequencing; frameworks hold sequencing errors

chain-sequence	polyreactivity (PSR sort gate)
QVQLVESGGGLVQAGGSLRLSCAASGRTFRFYTMGWYRQAPGKERELVAAIYWRGSSTYYADSVKGRFTISRDNAKNTVYLQMNSLKPEDTAVYYFAKKSYANEYDYWGQGTQVTVSS	high polyreactivity
QVQLVESGGGLVQAGGSLRLSCAASGLTFQTNAMGWYRQAPGKERELVAAISRRGSSTYYADSVKGRFTISRDNAKNTVYLQMNSLKPEDTAVYYCNAVRFLFIYPRYDYWGQGTQVTVSS	high polyreactivity

###

# assay-protocol: yeast display, Sf9 membrane polyspecificity reagent, FACS + sequencing; frameworks hold sequencing errors
recorded-endpoint: polyreactivity (PSR sort gate)

In the examples that follow, each entry is paired with its recorded polyreactivity (PSR sort gate).
chain-sequence	polyreactivity (PSR sort gate)
QVQLVESGGGLVQAGGSLRLSCAASGSISSYYAMGWYRQAPGQERELVAAITLNGGNTYYADSVKGRFTISRDNAKKTVYLQMNSLKPEDTAVYYCARRYRYGTKYYYWGQGTQVTVSS	high polyreactivity
QDQLVDSGGGLVQAGGSLRLSCAASGFNFGYYAMGWYRQAPRKERELVAAISRSGGRTYYADSVKGRFTISRDNAKNTVYLQMNILNPEDTAVYYCNARHYLSAYDYWGQGTQVTVSS	high polyreactivity
QVQLVESGVGLLQAGGILRISCASSGITFAWYAMVRYRQAPGKERELVAAIDDRGGSTYYADSVKGRFTISRDNAKNTVYFQMNSLKPEDTAVFYCNADTPSYEPYRLDYWGHGTQVTVSS	low polyreactivity
QVQLVESGGGLVQAGGSLRLSCAASGSIFVQYAMGWCRQAPGKDRELVAAISDSGGSTYYADSVKGRFTISRDNAKNTVYVQMNSLKPEDTAVYYCAAVSTNSYSHRFGWGQGTQVTVSS	low polyreactivity

Moving on to the next sequence.
Data request: Please give the documented polyreactivity (PSR sort gate) of `QEQLQESGSGLVQAGGSLRLSCAASGNIFQDWVMAWYRQAPGKERELVAAISPGAITYYADSVKGRFTISRDNAKNTVYLQTNSLKPEDTAVYYCAAYYIVEYLHGYWGQGTRVTVSS`
Data returned: low polyreactivity

###

# assay-protocol: yeast display, Sf9 membrane polyspecificity reagent, FACS + sequencing; frameworks hold sequencing errors
recorded-endpoint: polyreactivity (PSR sort gate)

In the examples that follow, each entry is paired with its recorded polyreactivity (PSR sort gate).
chain-sequence	recorded-value
QVQLVESGGGLVQAGGSLRLSCAASGFIFYDYAMGWYRQATGKERELVAGITDSGGSTSYADSVKGRFTISRDNAKNTDYLQMNSLKPEDTAVYYCAADNYVRAGINYDYWGQGTQVTVSS	low polyreactivity
QVQLVESGGGLVQAGGSLRLSCAASGSTFAIYAMGWYRQAPAKERELVAAITRGSTSYADSVKGRFTISRDNAKNTVYLQMNSLKPEDTAVYDCAADSSRYGVIRDFDYWGQGTQVTVSS	high polyreactivity
QFQLVESRGGLVQAGGSLRLSCAASGSIFGSNAMGLYRQAPAKERELVAANSGSGGSTNYADSVKGRLTLSRDIAQNTVYLHMNSLKPEDTAVYYCAVPSKATGSASTSYGIFDSWGQGTQVTVSS	low polyreactivity
QVQLVESGGGLVQAGGSLRLSCAASGMGWYRQAPGKERELVAAITSGDSTNYADSVKGRFTISRDNAKNTVYLQMNSLKPEDTAVYYCAADPDYLYAYYYWGQGTQVTVSS	low polyreactivity
QVQLVESGGCLVQAGGSLRLSCAASGSIFNSNAMGWYRPARGKERELVAVISWSDGSTRYADSVKGRFTISRDNAKNTVYLQMHSLKPEDTAVYYCNADLVYYYRQEVDYWGQGTQVTVTS	low polyreactivity
QVQLVESGGALVQAGGSLRLICAASGRTFQKYTMGWYRQAPGKERELVAAISKRGGSTYYADSVKGRFTISRDNAKNTVYLQMNSLKPEDTAVYYCATRVYRSAVSYDYWGQGTQVTVSS	high polyreactivity
QVQLVESGGGLDQAGGSLRLSCAASGRIFGFYAMGWYRQAPGKERELVAAITINTGSTSYADSVKGRFTISRDNAKNTVYFQMNSLKPEDTAVYYCATDAAAPKYDYWGQGTQVTVSS	low polyreactivity
QVELVESGGGLVQAGGSLRLSCAASGRIFSPNAMGWYRQAPGKERELVAALTGSGGTTYYADSVKGRFKISRDNAKNTVYLQMNSLKREDTAVYYCAADLYPFSRNPRYQFLYNYWGQGTQVTVSS	low polyreactivity
QDQLVESGGGLVQAGGSLRLSCAASGSIFSFYAMGWYSQATGKERELVAGIRWRGGTSTFYADSVKGRFTISRDNEKNTVYLQMNSLNPEDTAVYYCADKRRTGGNGYWGQGTQVTVSS	high polyreactivity
QVQLVESGGGLVQAGGSLRLSCAASGGTIAYNAMGWYRQAPWKERELVAAISSSGGRTYYADSVKGRFTITRDNAKNTVYLQMNRLKPEDTAVYYCATPVTNGFDYWGQGTQVTVSS	high polyreactivity

Data request: Please give the documented polyreactivity (PSR sort gate) of `QVQLVESGGGLVQAGGSLRLSFAASGSIFYAYAMGWYRQAPGKERELVAGISGGGSTNYADSVKGRFTISRDNAKNTVYLQMNSLKPEDTAVYYCAADGWLSATYDGLPDSDSWGQGTQVTVSS`
Data returned: high polyreactivity

Data request: Please give the documented polyreactivity (PSR sort gate) of `QVQLVESGGVLVQAGGSLRLSCAASGGIFNYYAMGWYRQAPGKERELVAAISASGGSTYYADSVKGRFTISRDNAKNTVYLQMNILKPEDTAVYYCAAGLPYGYGYDYWGQGTQVTVSS`
Data returned: low polyreactivity

Data request: Please give the documented polyreactivity (PSR sort gate) of `QVQLGESGGRLVQAGGSIRLTCAASGRTFVTYAMAWSRQAPGNEWELVAGIRPGGSTYYADSVKGRFTISRDNAKNTVYLQMNSLKPEDTAVYYCAASRTSWQGYNYWGQGTQVTVSS`
Data returned: high polyreactivity

Data request: Please give the documented polyreactivity (PSR sort gate) of `HVQLVESGGGLVQAGGSLRLSCAASGIIFQRNAMGWYRQAPGKERELVAPISYSDGSTYYADSVKGRFTISRDNAKNTVYLQMNSLKPEDTAVYYCAARRFGRLALYFRFDYWGQGTQVTVSS`
Data returned: low polyreactivity

###

# assay-protocol: yeast display, Sf9 membrane polyspecificity reagent, FACS + sequencing; frameworks hold sequencing errors
recorded-endpoint: polyreactivity (PSR sort gate)

In the examples that follow, each entry is paired with its recorded polyreactivity (PSR sort gate).
chain-sequence	polyreactivity (PSR sort gate)
QVQLVESGGGLVQAGGSLRLSCAASGFIFTQNGMGWYRQAPGKERELVAAISWSAGGTYYADSVKGRFTISRDNAKNTVYLQMNSLKPEDTAVYYCNARVYNVFREFNSWGQGTQVTVSS	low polyreactivity
QVQLVESGGGIVQAGGSLRLSCAASGRIFFGYAMGWYRQAPGKERELVAAITSGGSTYYADSVKGRFTISRDNAKNTDYLQMYSLKTEDTAVYYCAAVRWYGSKRYGYWGQGTQVTVSS	high polyreactivity
QVHLVESGGGLVQAGGSLRLSCAASGRTFDRNAMGWYIQAPGKERELVAAISRNGGSTYYADSVKGRFTISRDNAKNTVYLQMNSLKPEDTAVYYCAAPRSVYDVARGDYWGQGTQVTVSS	high polyreactivity
QVQLVESGGGLVQAGGSLRLSCAASGFIFYYYDMGWYRQAPGKERELVAAISTGGSTYYADSVKGRFTISRDNAKNTVYLQMNSLKPEDTAVYYCAADSYWSPYDYWGQGTQVTVSS	high polyreactivity

Data request: Please give the documented polyreactivity (PSR sort gate) of `QLQLQESGGGLVQAGGSLRLSSAASGTISPLPAMGLYSQATGKERELVPGIDTGAITNYADSVKGRFTISRDNAKHTVYLQMNSLKPEDTAVYYCAVFPAAYDYYERYYTEWGQGTQVTVSS`
Data returned: high polyreactivity

Data request: Please give the documented polyreactivity (PSR sort gate) of `QVQLVESGGGLVQAGGSLRLSCAASGSTFYFYAMGWYRQAPGKERELVATITTRGGSTYYADSVKGRFTISRDHAKNTLDLQMNILKPEDTAVYYCAREAWYKSYSRIKFGYWGQGTQVTVSS`
Data returned: high polyreactivity

Data request: Please give the documented polyreactivity (PSR sort gate) of `QVQHVESGGGLVQAGGSLRLSCAASGFTFVYYVMGWYRQAPGKERELVAAINAGGGSTYYADSVKGRFTISRDNAKNTVYLQMNSLKPEDTAVYYCNARVRVRLGRNWSSYYYWGQGTQVTVSS`
Data returned: high polyreactivity

Data request: Please give the documented polyreactivity (PSR sort gate) of `QVQLVESGGGLVQAGGSLSLSSAASGRTFGIYAMGWYRQEPGKERELVAAITWSGDSTYYADSVKGRFTISRDNAKNTVYLQLNSLKPEDTAVDYCAADYVGVTYVRYDYWGQGTQVTVSS`
Data returned: low polyreactivity

Data request: Please give the documented polyreactivity (PSR sort gate) of `QVQLVESGGGLVQAGGSLRLSCAASGFIFRVNAMGWYRQAPGKEREFVAAITYSGGRTSYADSVKGRFTISRDNAKNTVYLQMNSLKPEDTAVYYCAALLYKPSVHAKYYYWGQGTQVTVSS`
Data returned: high polyreactivity

Data request: Please give the documented polyreactivity (PSR sort gate) of `QVQLVESGGGLVQAGGSLRLSCAASGRIFGTNAMGWYRQAPGKERELVAAISRSGGSTYYADSVKGRFTISRDNSKNTVYLQMNSLKPEDTAVYYCATDGRHTYYYWGQGTQVTVSS`
Data returned: high polyreactivity

Data request: Please give the documented polyreactivity (PSR sort gate) of `QVQLEESGGGLVQAGGSLRLSCAASGRIFYGYAMGWSRQAPGKERELVASISRRGSSTYYADSVKGRFTISRDNAKNTVYLQMNSLKPEDTAVYYCAAGYYPFNYWGQGTQVTVSS`
Data returned: high polyreactivity

Data request: Please give the documented polyreactivity (PSR sort gate) of `QVQLVESGGGLVQAGGSLRLSCAASGSTFRYYAKGWYRQAPGKERELVAAINYGGGRTYYADSVKGRFTISRDIAKNTVYLQMNSLKPEDTAVYYCATGYYYYRFYTYGYWGQGTQVTVSS`
Data returned: high polyreactivity

Data request: Please give the documented polyreactivity (PSR sort gate) of `QVQLVESGGGLVQAGGSLRLSCAPSGRTFRTNTMGWYRQAPGKESELVAAINWRGGSTYYADSVKGRFTISRDNAKNTVYLQMNSLKPEDTAVYYCNAQQGRYKYSGRYDYWGQGTQVTVSS`
Data returned: low polyreactivity
